Exercise: state measured PRNT IC50 for each of the binders provided.
# Subject Of Test: F protein of hMPV B virus (human metapneumovirus subtype B)
# Procedure Summary: cell-based or functional assay
# number only, unit µg/mL dropped from output

Give its PRNT IC50 value. Item: M4B11 (antibody, V domains shown) VH: QVQLVQSGTEVQTPGASVKVSCKTSGYIFTGYFMHWVRQAPGQGFEWMGWVNPYSGATTYAQKFQGRVTMTRDTSISTVYMELSRLTSDDTAIYYCAKDTSNSGPDLLEHWGQGTLVIVSS VL: EIVLTQSPATLSLSPGERATLSCRASQSISNFLVWYQRKPGQAPRLLIFDVSKRATGIPTRFSGSGSGTDFTLTISSLEPEDFAVYYCQQRSNWPPGYTFGQGTKLEIK 0.238

Another binder to check: M1C7 (antibody, V domains shown) VH: QVQLVESGGGLVQPGRSLRLSCAASGFTFSSYAMHWVRQAPGKGLEWVAIITYDGSGKYYADSLEGRITISRDDPKSMLYLHMRSLTAEDTAVYYCVKSGSFSSAFWLEDWGQGTLVTVSS VL: EIVLTQSPATLSLSPGERATLSCRASQSISNFVAWYQQKPGQAPRLLIYDASNGATGTPARFSGSGSGTDFTLTISSLEPEDFAVYYCQQRSTWTFGQGTKVEIKR 0.0085

Another binder to check: M4A10 (antibody, V domains shown, IgG) VH: QVQLVQSGAEVKKPGASVKVSCKASGYTFNGHYLHWVRQAPGQGLEWMGWINPNSGGTDYAQRFQGRVTMTRGTSISTAYMELSRLTSDDTAVYFCARDNFGFWSASSGRHNWLDSWGQGTLVIVSS VL: NFMLTQPHSVSESPGKTVTISCTRSTGNIASNYVQWYQQRPGSSPTTVIYEDNQRPSAVPDRFSGSIDSSSNSASLTVSGLRTEDEADYYCQSYDSGHHVVFGGGTKLTVL 0.0301

Another binder to check: M3C06 (antibody, V domains shown, IgG) VH: QVQLVQSGAEVKKPGSSVKVSCKAYGGTLSNYAISWVRQAPGQGLHWMGRIIPVMNVANYADNFQGRVTITADKSTSTAYMELSSLRSEDAAIYYCATARGLGSLEGGDAFDVWGQGTMLTVSS VL: DIVMTQSPDSVAVSLGERATISCKSSLSLLYSSNNKNYLVWYQQKPGQPPKLLFYWASTRESGVPDRFSASGSGTDFTLTISSLQAEDVAVYYCQQYYSTPITFGQGTRLEIR 0.0617

FYI, the data here is from patent US20240327502A1.
